Target: human cyclophilin B (Homo sapiens)
Sequence (P23284 34-216): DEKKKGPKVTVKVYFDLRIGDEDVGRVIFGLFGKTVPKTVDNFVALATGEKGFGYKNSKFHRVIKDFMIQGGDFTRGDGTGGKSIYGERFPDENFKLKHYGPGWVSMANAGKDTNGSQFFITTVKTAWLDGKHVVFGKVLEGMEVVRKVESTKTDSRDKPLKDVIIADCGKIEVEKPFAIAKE
Assay: Peptidylprolyl isomerase (PPIase) activity inhibition assay
Assay type: biochemical
Details: Cyp B, test peptide Suc-Ala-Ala-Pro-Phe-Nan
Description: To determine the anti-asthmatic, anti-allergic, anti-inflammatory and/or immunomodulating properties of the compounds according to the invention, in-vitro and in-vivo investigations were carried out. […] For the initial screening (10 μmol/l), the inhibition of human cyclophilin B in the PPIase test is determined. The PPIase activity is tested according to a globally customary enzyme test: G. Fischer, H. Bang, C. Mech, Biomed. Biochim. Acta 43 1101-1111; G. Fischer, H. Bang, A. Schellenberger, Biochim. […]
Measure: inhibition at 10 µM (%)
Hi! Could you send only the number? It should be in %, unit omitted.

Some solved cases for reference:
{"columns": ["Smiles String", "inhibition at 10 µM (%)"],
 "data": [
  ["COc1ccc2c(c1)c(OCC(=O)Nc1ccc(F)cc1F)nn2S(=O)(=O)c1ccc(C)cc1", 40],
  ["COc1ccc2c(c1)c(OCc1noc(-c3cccc(C(F)(F)F)c3)n1)nn2S(=O)(=O)c1ccc(C)cc1", 70],
  ["COc1ccc2c(c1)c(OCCOc1c(F)cc(F)cc1Br)nn2S(=O)(=O)c1ccc(C)cc1", 95]
]}

Input COc1ccc2c(c1)c(OCc1c(Cl)cccc1Cl)nn2Cc1cccc([N+](=O)[O-])c1 . Output inhibition at 10 µM: 90

Sure, the documented inhibition at 10 µM for O=C(Nc1ccc2c(c1)c(OCCOc1ccc([N+](=O)[O-])cc1)nn2Cc1ccc(Cl)c(Cl)c1)Nc1cccc2ccccc12 is 90

Just so you know, measured inhibition at 10 µM for COc1ccc2c(c1)c(OCc1ccc(Cl)cc1[N+](=O)[O-])nn2S(=O)(=O)c1ccc(C)cc1 came out at 71

Notebook: COc1ccc(S(=O)(=O)n2nc(OCCOc3ccc(Cl)cc3)c3cc(OC)ccc32)cc1 , inhibition at 10 µM read as 90

Input COc1ccc2c(c1)c(OCC(=O)Nc1ccc(Cl)cc1Cl)nn2S(=O)(=O)c1ccc(C)cc1 . Output inhibition at 10 µM: 67

Field inhibition at 10 µM (entry O=C(Nc1ccc2c(c1)c(OCCOc1ccc([N+](=O)[O-])cc1)nn2Cc1ccc(Cl)cc1Cl)Nc1cccc2ccccc12 ) reads 100

Data point: COc1ccc2c(c1)c(OCCOc1ccc(Cl)cc1)nn2S(=O)(=O)c1ccc(Cl)cc1 ; inhibition at 10 µM = 70
